- TARGET DESC: Cytochrome P450 2D6 (Homo sapiens) (UniProt P10635)
- Sequence (P10635 whole entry, looked up): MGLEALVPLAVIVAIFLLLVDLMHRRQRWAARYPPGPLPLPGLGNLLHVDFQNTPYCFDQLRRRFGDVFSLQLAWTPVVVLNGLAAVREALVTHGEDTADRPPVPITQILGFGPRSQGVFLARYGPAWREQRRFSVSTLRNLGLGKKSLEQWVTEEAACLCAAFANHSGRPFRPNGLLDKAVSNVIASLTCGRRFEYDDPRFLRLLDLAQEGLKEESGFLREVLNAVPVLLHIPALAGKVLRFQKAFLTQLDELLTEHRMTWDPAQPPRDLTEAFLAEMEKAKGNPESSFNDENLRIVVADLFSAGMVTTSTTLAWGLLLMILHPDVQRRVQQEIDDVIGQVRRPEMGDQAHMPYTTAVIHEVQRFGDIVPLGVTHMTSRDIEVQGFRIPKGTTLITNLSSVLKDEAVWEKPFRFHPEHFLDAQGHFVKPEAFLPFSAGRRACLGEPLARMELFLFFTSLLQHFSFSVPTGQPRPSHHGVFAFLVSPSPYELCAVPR
- EXPERIMENTAL PROTOCOL: Cytochrome P450 family 2 subfamily D member 6 (CYP2D6) small molecule antagonists: luciferase biochemical (cell-free) qHTS assay (AID 1645840); note: nearly all actives have a fitted effect of over 55% in size
- TEST SETTINGS: P450-Glo CYP2D6 enzyme, luciferin luminescence, 1 h; series mostly up to 57.4 µM
Records with an inconclusive call do not appear. Active and inactive are the calls of the source. Calls come from the whole dose curve; as a rule, active = well fitted inhibition curve with a large enough effect in the repeat runs; inconclusive = weak or mixed curves; inactive = flat fitted curve, though single readings scatter.
Field 'call' accepts y for active, n for inactive

Record excerpt, results attached:
1) C#C[C@]1(OC(C)=O)CC[C@H]2[C@@H]3CCC4=C[C@@H](OC(C)=O)CC[C@@H]4[C@H]3CC[C@@]21C = n
2) NC(=O)C(=O)N/N=C/c1ccc([N+](=O)[O-])o1 = y
3) Oc1c(Cl)cc(Cl)cc1Sc1cc(Cl)cc(Cl)c1O = y
4) CC(=O)OCC(=O)[C@@]12N=C(C)O[C@@H]1C[C@H]1[C@@H]3CCC4=CC(=O)C=C[C@]4(C)[C@H]3[C@@H](O)C[C@@]12C = n

Exam item: Check the results log: what was the call for `NC(=O)c1cc[n+](CC2=C(C(=O)[O-])N3C(=O)[C@@H](NC(=O)Cc4cccs4)[C@H]3SC2)cc1` ?
Marked response: n
